Taken from ChEMBL document CHEMBL4483862.

Tested on: Plasmodium berghei
ASSAY NOTES: Luciferase/luciferin-expressing antifolate-resistant parasites were used to infect a culture of HepG2 cells that were pre-incubated with compounds. Infected hepatocytes emit light due to the luciferase reaction. Assay results are presented as the percent inhibition of light emission compared to control. […]
Format: functional
CONDITION PARAMETERS: sporozoite, PBLUC_HILL_SLOPE 6.19, PBLUC_R_SQUARED 0.577, read-out: LUCIFERASE INFECTION ASSAY - IC50
MEASURED ATTRIBUTE: pIC50
The scale used: pIC50 is minus the common logarithm of the concentration in molar units.

Ask: Suppose we examine the compound O=C(Nc1ccccc1)N1CCc2sccc2C1c1ccc(C(F)(F)F)cc1 (stereo unspecified) ; what pIC50 value has been reported?
Result: 5.38
